# TEST_METHOD_NOTES: Microsomal stability assay
# Format: in vitro ADME
# CONDITION: human, human liver microsomes, pH 7.4, human liver microsomes, 5 μm, 37° C.; read-out: T1/2, 5 μm microsomal stability assay
RESULT_TYPE: half-life at 5 μM

Could you share which half-life at 5 μM value was measured for CC[C@H](OC)[C@@H](C)[C@H]1O[C@@H]1C(NCC1CCCCCC1)C(C)(O)/C=C/C=C(\C)[C@H]1OC(=O)C[C@H](O)CC[C@@](C)(O)[C@@H](OC(C)=O)/C=C/[C@@H]1C.O=CO (stereo partly shown) ?
6.1 min
